Test system: KRAS PDC tumor spheroids (HUVEC+MSC), viability
Assay: Anticancer human tumor 254851-301-R-J1-PDC patient-derived colon carcinoma cell line growth inhibition [KRAS2]
Conditions: second compound 10 µM; first compound 3.16 µM; active compounds read low
Excerpt: Multicellular complex tumor spheroid response to RAS pathway inhibitors in combination with a targeted agents in patient-derived cell lines with oncogenic KRAS variants from multiple cancer types A high-throughput screen of multi-cell type tumor spheroids was designed to identify active combinations of targeted small molecules and KRAS pathway inhibitors. […] Compounds. […] If the clinical Cmax for an agent had not been determined, the highest concentration tested was 10 microM. […]

compound | viability, T/C
CC1COCCN1c1cc(-c2ccnn2C)c2ccnc(-c3ccn[nH]3)c2n1 (stereo unspecified) + CNCc1ccccc1-c1csc(C(C)Nc2nc(C)nc3cc(OC)c(OC)cc23)c1 | 0.12%
Cn1nccc1Nc1nccc(-c2cc3c(s2)C(C)(C)N(CCN2CCOCC2)C3=O)n1 + CNCc1ccccc1-c1csc(C(C)Nc2nc(C)nc3cc(OC)c(OC)cc23)c1 | 0.06%
COc1cc(Nc2ncc3c(n2)-c2ccc(Cl)cc2C(c2c(F)cccc2OC)=NC3)ccc1C(=O)O + COc1cc2nc(C)nc(NC(C)c3cc(N)cc(C(F)(F)F)c3)c2cc1OC1CCOC1 | 22.4%
CCNC(=O)CC1N=C(c2ccc(Cl)cc2)c2cc(OC)ccc2-n2c(C)nnc21 (stereo unspecified) + COc1cc2nc(C)nc(NC(C)c3cc(N)cc(C(F)(F)F)c3)c2cc1OC1CCOC1 | 22.9%
CCNC(=O)CC1N=C(c2ccc(Cl)cc2)c2cc(OC)ccc2-n2c(C)nnc21 (stereo unspecified) + CC1OCC2(CCN(c3cnc(Sc4ccnc(N)c4Cl)c(N)n3)CC2)C1N | 56.5%
CC1COCCN1c1cc(-c2ccnn2C)c2ccnc(-c3ccn[nH]3)c2n1 (stereo unspecified) + COc1cc2nc(C)nc(NC(C)c3cc(N)cc(C(F)(F)F)c3)c2cc1OC1CCOC1 | 20.9%
CC(C)NCC(C(=O)N1CCN(c2ncnc3c2C(C)CC3O)CC1)c1ccc(Cl)cc1 (stereo unspecified) + CNCc1ccccc1-c1csc(C(C)Nc2nc(C)nc3cc(OC)c(OC)cc23)c1 | 0.16%
COc1cc(Nc2ncc3c(n2)-c2ccc(Cl)cc2C(c2c(F)cccc2OC)=NC3)ccc1C(=O)O + CC1OCC2(CCN(c3cnc(Sc4ccnc(N)c4Cl)c(N)n3)CC2)C1N | 13.8%
CC1(C)CCC(CN2CCN(c3ccc(C(=O)NS(=O)(=O)c4ccc(NCC5CCOCC5)c([N+](=O)[O-])c4)c(Oc4cnc5[nH]ccc5c4)c3)CC2)=C(c2ccc(Cl)cc2)C1 + CC1OCC2(CCN(c3cnc(Sc4ccnc(N)c4Cl)c(N)n3)CC2)C1N | 46.6%
COc1cc(Nc2ncc3c(n2)-c2ccc(Cl)cc2C(c2c(F)cccc2OC)=NC3)ccc1C(=O)O + CNCc1ccccc1-c1csc(C(C)Nc2nc(C)nc3cc(OC)c(OC)cc23)c1 | 0.11%
COc1cc2nccc(Oc3ccc(NC(=O)C4(C(=O)Nc5ccc(F)cc5)CC4)cc3)c2cc1OC + C=CC(=O)N1CCN(c2nc(=O)n(-c3c(C)ccnc3C(C)C)c3nc(-c4c(O)cccc4F)c(F)cc23)C(C)C1 | 90.8%

* * *

Tested on: KRAS PDC tumor spheroids (HUVEC+MSC), viability
Experiment: Anticancer human tumor 254851-301-R-J1-PDC cell line growth inhibition [KRAS2]; active = viability on the fitted dose curve at most 10% of control; inactive = the rest;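 note: spheroids exposed to compounds for seven days before readout; 100% = DMSO vehicle control luminescence of the spheroids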
Conditions: compound 10 µM
Possible outcomes: 1 (yes) (active), 0 (no) (inactive)

compound | cat
CC(C)NCC(C(=O)N1CCN(c2ncnc3c2C(C)CC3O)CC1)c1ccc(Cl)cc1 (configuration not stated) | 0 (no)
COC(=O)c1ccc2c(C(=Nc3ccc(N(C)C(=O)CN4CCN(C)CC4)cc3)c3ccccc3)c(O)[nH]c2c1 | 0 (no)
CC1(C)CCC(CN2CCN(c3ccc(C(=O)NS(=O)(=O)c4ccc(NCC5CCOCC5)c([N+](=O)[O-])c4)c(Oc4cnc5[nH]ccc5c4)c3)CC2)=C(c2ccc(Cl)cc2)C1 | 0 (no)
Cn1nccc1Nc1nccc(-c2cc3c(s2)C(C)(C)N(CCN2CCOCC2)C3=O)n1 | 1 (yes)
COc1cc(Nc2ncc3c(n2)-c2ccc(Cl)cc2C(c2c(F)cccc2OC)=NC3)ccc1C(=O)O | 0 (no)
O=C(c1cc(Cc2n[nH]c(=O)c3ccccc23)ccc1F)N1CCN(C(=O)C2CC2)CC1 | 0 (no)
